- target.or.system: PRMT5/MEP50 complex (Homo sapiens)
- test.protocol: Binding affinity to PRMT5/MEP50 (unknown origin) assessed as dissociation constant by FITC- Competitive binding assay
Numbered stars: 1 amine (or outer) side, 2 acyl side, 3 side chain; on linkers, the order of the positions; unused ones are H or OH. Bridge positions count the residues as written; N and C are the ends. Square brackets hold non-standard residues; d marks the D form. Peptide text beside a SMILES is read from it. * marks the point of attachment. FITC = O=C1OC2(c3ccc(O)cc3Oc3cc(O)ccc32)c2ccc(NC(=S)*)cc21; Phe(4-NO2) = N[C@@H](Cc1ccc([N+](=O)[O-])cc1)C(=O)O; Phe(3,4-F2) = N[C@@H](Cc1ccc(F)c(F)c1)C(=O)O; Hag = O=C([C@H](CCC=[*:3])N[*:1])[*:2]; Phe(4-F) = N[C@@H](Cc1ccc(F)cc1)C(=O)O; Gla = N[C@@H](CC(C(=O)O)C(=O)O)C(=O)O; AllylGly = C=CC[C@H](N)C(=O)O
In this section, each of the compounds is paired with its reported Kd.

compound	unit.text	Kd
CC(=O)N[C@H](C(=O)N1CCC[C@H]1C(=O)NCC(=O)N[C@@H](CCC(N)=O)C(=O)N[C@@H](Cc1ccc(F)cc1)C(=O)N[C@@H](CC(=O)O)C(=O)N[C@@H](CC(=O)O)C(=O)N[C@@H](C)C(=O)N[C@@H](CC(=O)O)C(=O)N[C@@H](CCCCNC(=S)Nc1ccc2c(c1)C(=O)OC21c2ccc(O)cc2Oc2cc(O)ccc21)C(N)=O)C(C)C (Ac-VPGQ[Phe(4-F)]DDADK(FITC)-NH2)	nM	391
CC(=O)N[C@H](C(=O)N1CCC[C@H]1C(=O)N[C@H]1CC/C=C/C[C@@H](C(=O)N[C@@H](CC(=O)O)C(=O)N[C@@H](C)C(=O)N[C@@H](CC(=O)O)C(=O)N[C@@H](CCCCNC(=S)Nc2ccc3c(c2)C(=O)OC32c3ccc(O)cc3Oc3cc(O)ccc32)C(N)=O)NC(=O)[C@H](Cc2ccccc2)NC(=O)[C@H](CCC(N)=O)NC1=O)C(C)C (Ac-VP[Hag]QF[AllylGly]DADK(FITC)-NH2; staple (E) 3-6)	nM	562
CC(=O)N[C@H](C(=O)N1CCC[C@H]1C(=O)NCC(=O)N[C@@H](CCC(N)=O)C(=O)N[C@@H](Cc1ccc(F)c(F)c1)C(=O)N[C@@H](CC(=O)O)C(=O)N[C@@H](CC(=O)O)C(=O)N[C@@H](C)C(=O)N[C@@H](CC(=O)O)C(=O)N[C@@H](CCCCNC(=S)Nc1ccc2c(c1)C(=O)OC21c2ccc(O)cc2Oc2cc(O)ccc21)C(N)=O)C(C)C (Ac-VPGQ[Phe(3,4-F2)]DDADK(FITC)-NH2)	nM	412
CC(=O)N[C@H](C(=O)N1CCC[C@H]1C(=O)NCC(=O)N[C@@H](CCC(N)=O)C(=O)N[C@@H](Cc1ccc([N+](=O)[O-])cc1)C(=O)N[C@@H](CC(=O)O)C(=O)N[C@@H](CC(=O)O)C(=O)N[C@@H](C)C(=O)N[C@@H](CC(C(=O)O)C(=O)O)C(=O)N[C@@H](CCCCNC(=S)Nc1ccc2c(c1)C(=O)OC21c2ccc(O)cc2Oc2cc(O)ccc21)C(N)=O)C(C)C (Ac-VPGQ[Phe(4-NO2)]DDA[Gla]K(FITC)-NH2)	nM	78

---

Reported pKd values for a set of compounds
- target.or.system: PRMT5/MEP50 complex (Homo sapiens, UniProt O14744+Q9BQA1)
- Sequence (O14744 whole entry): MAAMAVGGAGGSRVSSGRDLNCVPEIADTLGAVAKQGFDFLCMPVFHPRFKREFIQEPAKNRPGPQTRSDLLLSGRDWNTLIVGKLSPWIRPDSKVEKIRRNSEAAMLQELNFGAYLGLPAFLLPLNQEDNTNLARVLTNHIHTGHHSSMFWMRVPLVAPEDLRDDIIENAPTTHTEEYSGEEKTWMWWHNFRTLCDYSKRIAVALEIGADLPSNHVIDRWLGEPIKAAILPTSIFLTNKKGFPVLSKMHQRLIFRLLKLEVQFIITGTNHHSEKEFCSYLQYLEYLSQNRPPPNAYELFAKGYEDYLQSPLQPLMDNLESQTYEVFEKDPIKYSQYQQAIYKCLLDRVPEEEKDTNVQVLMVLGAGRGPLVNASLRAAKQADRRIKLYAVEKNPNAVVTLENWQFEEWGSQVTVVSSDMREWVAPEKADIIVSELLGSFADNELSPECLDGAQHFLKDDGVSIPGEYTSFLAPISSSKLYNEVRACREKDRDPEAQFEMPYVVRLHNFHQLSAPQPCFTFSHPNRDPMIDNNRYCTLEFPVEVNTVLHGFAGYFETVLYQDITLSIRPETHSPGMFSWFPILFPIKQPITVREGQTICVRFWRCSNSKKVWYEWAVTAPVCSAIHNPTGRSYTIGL
- Sequence (Q9BQA1 whole entry): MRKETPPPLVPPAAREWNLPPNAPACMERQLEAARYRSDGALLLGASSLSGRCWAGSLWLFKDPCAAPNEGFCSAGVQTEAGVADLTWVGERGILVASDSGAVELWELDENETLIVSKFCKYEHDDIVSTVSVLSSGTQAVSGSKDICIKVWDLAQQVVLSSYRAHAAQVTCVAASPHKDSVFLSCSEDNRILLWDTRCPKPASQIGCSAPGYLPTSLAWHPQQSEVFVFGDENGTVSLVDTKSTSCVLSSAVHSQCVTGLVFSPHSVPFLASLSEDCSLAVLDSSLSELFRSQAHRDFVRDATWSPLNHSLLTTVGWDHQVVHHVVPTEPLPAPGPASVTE
- test.protocol: Binding affinity to PRMT5/MEP50 (unknown origin) assessed as dissociation constant by FITC- Competitive binding assay
pKd: −log10 of the molar value.

compound	pKd
CC(=O)N[C@H](C(=O)N1CCC[C@@H]1C(=O)N[C@H]1CCCCC[C@@H](C(=O)N[C@@H](CC(=O)O)C(=O)N[C@@H](C)C(=O)N[C@@H](CC(C(=O)O)C(=O)O)C(=O)N[C@@H](CCCCNC(=S)Nc2ccc3c(c2)C(=O)OC32c3ccc(O)cc3Oc3cc(O)ccc32)C(N)=O)NC(=O)[C@H](Cc2ccc([N+](=O)[O-])cc2)NC(=O)[C@H](CCC(N)=O)NC1=O)C(C)C	7.05
CC(=O)N[C@H](C(=O)N1CCC[C@H]1C(=O)N[C@H]1CC/C=C/CC[C@H](C(=O)N[C@@H](CC(=O)O)C(=O)N[C@@H](C)C(=O)N[C@@H](CC(=O)O)C(=O)N[C@@H](CCCCNC(=S)Nc2ccc3c(c2)C(=O)OC32c3ccc(O)cc3Oc3cc(O)ccc32)C(N)=O)NC(=O)[C@H](Cc2ccccc2)NC(=O)[C@H](CCC(N)=O)NC1=O)C(C)C	< 5.70
CC(C)[C@H](NC(=O)[C@H](CCCNC(=N)N)NC(=O)[C@H](CO)NC(=O)COCCOCCNC(=S)Nc1ccc2c(c1)C(=O)OC21c2ccc(O)cc2Oc2cc(O)ccc21)C(=O)N[C@H](C(=O)N1CCC[C@H]1C(=O)N[C@H]1C/C=C/C[C@H](C(=O)N[C@@H](CC(=O)O)C(=O)N[C@@H](C)C(=O)N[C@@H](CC(=O)O)C(N)=O)NC(=O)[C@H](Cc2ccccc2)NC(=O)[C@H](CCC(N)=O)NC1=O)C(C)C (stereo in doubt; form 2)	< 5.70
CC(=O)N[C@H](C(=O)N1CCC[C@H]1C(=O)N[C@H]1C/C=C\CC[C@H](C(=O)N[C@@H](CC(=O)O)C(=O)N[C@@H](C)C(=O)N[C@@H](CC(=O)O)C(=O)N[C@@H](CCCCNC(=S)Nc2ccc3c(c2)C(=O)OC32c3ccc(O)cc3Oc3cc(O)ccc32)C(N)=O)NC(=O)[C@H](Cc2ccccc2)NC(=O)[C@H](CCC(N)=O)NC1=O)C(C)C	< 5.70
CC(C)[C@H](NC(=O)[C@H](CCCNC(=N)N)NC(=O)[C@H](CO)NC(=O)COCCOCCNC(=S)Nc1ccc2c(c1)C(=O)OC21c2ccc(O)cc2Oc2cc(O)ccc21)C(=O)N[C@H](C(=O)N1CCC[C@H]1C(=O)N[C@H]1CNC(=O)C[C@H](C(=O)N[C@@H](CC(=O)O)C(=O)N[C@@H](C)C(=O)N[C@@H](CC(=O)O)C(N)=O)NC(=O)[C@H](Cc2ccccc2)NC(=O)[C@H](CCC(N)=O)NC1=O)C(C)C	< 5.70
CC(C)[C@H](NC(=O)[C@H](CCCNC(=N)N)NC(=O)[C@H](CO)NC(=O)COCCOCCNC(=S)Nc1ccc2c(c1)C(=O)OC21c2ccc(O)cc2Oc2cc(O)ccc21)C(=O)N[C@H](C(=O)N1CCC[C@H]1C(=O)N[C@H]1CCCC[C@H](C(=O)N[C@@H](CC(=O)O)C(=O)N[C@@H](C)C(=O)N[C@@H](CC(=O)O)C(N)=O)NC(=O)[C@H](Cc2ccccc2)NC(=O)[C@H](CCC(N)=O)NC1=O)C(C)C	< 5.70

---

- test.protocol: Stability in human U2OS cells assessed as half life incubated upto 24 hrs by HPLC analysis
- Type: ADME, cell-based
- applied.conditions: U2OS cell lysate
readout.type: half-life (h)

> print(dat)
          substance  unit.text  measured
1  Ac-VPGQFDDAD-NH2          h       4.4

---

- target.or.system: PRMT5/MEP50 complex (Homo sapiens)
- test.protocol: Binding affinity to PRMT5/MEP50 (unknown origin) assessed as dissociation constant by FITC- Competitive binding assay
Square brackets hold non-standard residues; d marks the D form. Peptide text beside a SMILES is read from it. * marks the point of attachment. FITC = O=C1OC2(c3ccc(O)cc3Oc3cc(O)ccc32)c2ccc(NC(=S)*)cc21; Phe(4-Br) = N[C@@H](Cc1ccc(Br)cc1)C(=O)O; Phe(3-F) = N[C@@H](Cc1cccc(F)c1)C(=O)O; Gla = N[C@@H](CC(C(=O)O)C(=O)O)C(=O)O
Consider the following compounds and their measured Kd readings.
readout.type: Kd (µM)

compound	readout.type	measured
CC(=O)N[C@H](C(=O)N1CCC[C@H]1C(=O)NCC(=O)N[C@@H](CCC(N)=O)C(=O)N[C@@H](Cc1ccccc1)C(=O)N[C@@H](CC(=O)O)C(=O)N[C@@H](CC(=O)O)C(=O)N[C@@H](C)C(=O)N[C@@H](CC(C(=O)O)C(=O)O)C(=O)N[C@@H](CCCCNC(=S)Nc1ccc2c(c1)C(=O)OC21c2ccc(O)cc2Oc2cc(O)ccc21)C(N)=O)C(C)C (Ac-VPGQFDDA[Gla]K(FITC)-NH2)	Kd	0.245
CC(=O)N[C@H](C(=O)N1CCC[C@H]1C(=O)NCC(=O)N[C@@H](CCC(N)=O)C(=O)N[C@@H](Cc1ccc(Br)cc1)C(=O)N[C@@H](CC(=O)O)C(=O)N[C@@H](CC(=O)O)C(=O)N[C@@H](C)C(=O)N[C@@H](CC(=O)O)C(=O)N[C@@H](CCCCNC(=S)Nc1ccc2c(c1)C(=O)OC21c2ccc(O)cc2Oc2cc(O)ccc21)C(N)=O)C(C)C (Ac-VPGQ[Phe(4-Br)]DDADK(FITC)-NH2)	Kd	0.317
CC(=O)N[C@H](C(=O)N1CCC[C@H]1C(=O)NCC(=O)N[C@@H](CCC(N)=O)C(=O)N[C@@H](Cc1cccc(F)c1)C(=O)N[C@@H](CC(=O)O)C(=O)N[C@@H](CC(=O)O)C(=O)N[C@@H](C)C(=O)N[C@@H](CC(=O)O)C(=O)N[C@@H](CCCCNC(=S)Nc1ccc2c(c1)C(=O)OC21c2ccc(O)cc2Oc2cc(O)ccc21)C(N)=O)C(C)C (Ac-VPGQ[Phe(3-F)]DDADK(FITC)-NH2)	Kd	0.654
